Where do the numbers come from? From the supplement of paper PMC10567573.

Each item that follows carries a reported protein stability index.
B1: PLD5 (parent)
chain: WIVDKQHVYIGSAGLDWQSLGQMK

Variants of: B1
PROTOCOL: protein stability index of a GFP-peptide fusion (GPS, HEK-293T) (PSI 1-6); higher = more stable;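 further: lentivirally expressed fusions sorted by FACS into six bins by GFP to DsRed ratio, PSI derived from sequencing read proportions per bin multiplied by bin number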
TEST_SETTINGS: c terminus: a fixed tail appended
Please state the value as a number alone, without comment.

Solved cases below.
WIVDKQHEYIGSAGLDWQSLGQMK 2.01
WIVDKQHVYIGSAFLDWQSLGQMK 2.02
WIVDKQHVYIRSAGLDWQSLGQMK 2.02
WIVWKQHVYIGSAGLDWQSLGQMK 1.96

[ask] Return value of protein stability index for input WIVDKQHVYIGSASLDWQSLGQMK , no commentary.
[reply] 2.16

[ask] Recall and state the measured protein stability index for WIVDKQHLYIGSAGLDWQSLGQMK .
[reply] 1.93

[ask] Supply recorded protein stability index for WIVDAQHVYIGSAGLDWQSLGQMK here.
[reply] 4.17

[ask] Return value of protein stability index for input NIVDKQHVYIGSAGLDWQSLGQMK , no commentary.
[reply] 2.19
